SUBJECT_OF_TEST: human recombinant OX2 (hOX2) receptors expressed in CHO cells (Homo sapiens, UniProt O43614)
Sequence (O43614 whole entry): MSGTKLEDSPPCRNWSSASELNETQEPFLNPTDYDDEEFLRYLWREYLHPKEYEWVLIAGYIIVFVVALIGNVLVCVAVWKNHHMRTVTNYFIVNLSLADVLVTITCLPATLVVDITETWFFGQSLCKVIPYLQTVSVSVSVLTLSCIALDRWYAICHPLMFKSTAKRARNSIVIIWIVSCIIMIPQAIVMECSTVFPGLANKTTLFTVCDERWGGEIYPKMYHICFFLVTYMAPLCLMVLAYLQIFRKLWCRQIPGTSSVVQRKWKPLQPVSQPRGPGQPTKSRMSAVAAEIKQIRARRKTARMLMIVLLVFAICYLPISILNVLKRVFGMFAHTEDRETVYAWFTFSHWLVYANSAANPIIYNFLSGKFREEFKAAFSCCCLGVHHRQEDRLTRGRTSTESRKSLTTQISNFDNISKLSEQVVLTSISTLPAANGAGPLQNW
PROTOCOL_NOTES: IP-1 accumulation assay (IP-One HTRF) in hOX2-CHO cells
CONDITION_PARAMETERS: 60 min incubation at 37° C., mean of at least two independent experiments, read-out: EC50_OX2R Category
The following compounds are listed with their measured EC50 values.

- COMPOUND: "C[C@@H]1C[C@@]2(COCC(=O)N2)[C@@H]2CO[C@H]3CC[C@H](CC3)c3c(F)cccc3OCC(=O)N12 (single isomer, unassigned) [Example 17a]"
  EC50: "< 100 nM"
- COMPOUND: "O=C1COCC2(CCCN3C(=O)C4(CC4)COc4ccccc4[C@H]4CC[C@H](CC4)OCC32)N1 (stereo partly shown) [Example 37]"
  EC50: "< 100 nM"
- COMPOUND: "O=C1COC[C@@]2(CCCN3C(=O)COc4ccccc4[C@H]4CC[C@H](CC4)OC[C@H]32)N1 (single isomer, unassigned) [Example 32a]"
  EC50: "< 100 nM"
- COMPOUND: "O=C1COc2ccccc2[C@H]2CC[C@H](CC2)OC[C@@H]2N1CCC[C@@]21CCCS(=O)(=O)N1 (single isomer, unassigned) [Example 59a]"
  EC50: "< 100 nM"
- COMPOUND: "O=C1N[C@@]2(CCCN3C(=O)COc4ccccc4[C@H]4CC[C@H](CC4)OC[C@@H]32)COC1F (single isomer, unassigned) [Example 56b]"
  EC50: "< 100 nM"

Now for another entry.
Quick one: EC50 of O=C1COC[C@]2(CCCN3C(=O)C4(CC4)COc4ccccc4[C@H]4CC[C@H](CC4)OC[C@@H]32)N1 (single isomer, unassigned) [Example 37b] ?
1000 to 10000 nM
